Target: UniProtKB Q9NR97
Sequence (Q9NR97 27-1041): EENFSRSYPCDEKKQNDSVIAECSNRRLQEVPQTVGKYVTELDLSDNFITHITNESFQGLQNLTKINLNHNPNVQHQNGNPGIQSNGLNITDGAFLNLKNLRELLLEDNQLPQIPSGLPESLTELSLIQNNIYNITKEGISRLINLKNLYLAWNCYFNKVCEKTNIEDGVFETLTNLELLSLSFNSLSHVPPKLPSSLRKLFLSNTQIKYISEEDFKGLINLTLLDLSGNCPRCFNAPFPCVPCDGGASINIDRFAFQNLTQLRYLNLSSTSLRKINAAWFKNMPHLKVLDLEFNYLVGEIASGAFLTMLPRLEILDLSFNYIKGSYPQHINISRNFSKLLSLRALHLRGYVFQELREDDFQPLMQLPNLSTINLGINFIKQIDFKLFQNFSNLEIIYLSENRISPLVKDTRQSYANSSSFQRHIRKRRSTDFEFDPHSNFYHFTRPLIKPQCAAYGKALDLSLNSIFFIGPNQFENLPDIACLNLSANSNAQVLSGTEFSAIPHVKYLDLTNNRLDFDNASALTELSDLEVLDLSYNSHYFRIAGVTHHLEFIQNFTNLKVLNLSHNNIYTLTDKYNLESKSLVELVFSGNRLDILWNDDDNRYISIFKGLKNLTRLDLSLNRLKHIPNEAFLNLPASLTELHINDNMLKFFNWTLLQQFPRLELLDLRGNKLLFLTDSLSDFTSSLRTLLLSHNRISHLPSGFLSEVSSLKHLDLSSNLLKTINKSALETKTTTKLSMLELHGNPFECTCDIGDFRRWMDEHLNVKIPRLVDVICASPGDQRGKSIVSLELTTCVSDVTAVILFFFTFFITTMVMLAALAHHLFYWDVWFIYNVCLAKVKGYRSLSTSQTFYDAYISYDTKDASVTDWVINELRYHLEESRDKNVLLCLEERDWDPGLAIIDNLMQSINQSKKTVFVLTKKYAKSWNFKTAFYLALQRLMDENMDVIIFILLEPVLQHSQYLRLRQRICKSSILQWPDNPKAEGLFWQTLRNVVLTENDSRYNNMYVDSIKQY
Assay: PBMC assay for TLR8 (TNFα in supernatants by ELISA)
Assay type: cell-based
Parameters: Peripheral blood mononuclear cells (PBMCs) from human blood were isolated; endogenous in cells; host or cells: human PBMCs
Run Parameters: human PBMCs incubated with compound overnight, MC50 = concentration at which 50% of the maximum induction is seen
pEC50: −log10 of the molar value.
Assay Metric: pEC50

Observe how each entry below is paired with its result.
CCCN(CC(O)CO)C(=O)C1=Cc2ccc(-c3ccc(C(=O)N4CCCC4)cc3)cc2N=C(N)C1 (stereo not shown) [Compound 110] : 5.00 to 6.00
CCCN(CCO)C(=O)C1=Cc2ccc(-c3ccc(C(=O)N4CCCC4)cc3)cc2N=C(N)C1 [Compound 107] : 7.00 to 9.00

Then this compound:
What value of pEC50 has been reported for the following compound? NC1=Nc2cc(-c3ccc(C(=O)N4CCCC4)cc3)ccc2C=C(C(=O)N2CCCC2)C1 [Compound 121] 4.00 to 5.00

###

Target: TLR8 (Homo sapiens, UniProt Q9NR97)
Assay: PBMC assay for TLR8 (TNFα in supernatants by ELISA)
Format: cell-based
Parameters: Peripheral blood mononuclear cells (PBMCs) from human blood were isolated; endogenous in cells; host or cells: human PBMCs
Run Parameters: human PBMCs incubated with compound overnight, MC50 = concentration at which 50% of the maximum induction is seen
pEC50: −log10 of the molar value.
Assay Metric: pEC50

CCCN(CCCO)C(=O)C1=Cc2ccc(-c3ccc(C(=O)O)cc3)cc2N=C(N)C1 : 4.00 to 5.00

What value of pEC50 has been reported for the following compound? CCCN(C[C@H](C)O)C(=O)C1=Cc2ccc(-c3ccc(C(=O)N4CCCC4)cc3)cc2N=C(N)C1 (single isomer, unassigned) 7.00 to 9.00

# repeat for CCCN(CCC)C(=O)C1=Cc2ccc(-c3ccc(C(=O)OC)cc3)cc2N=C(N)C1 6.00 to 7.00

# repeat for CCCN(CCCO)C(=O)C1=Cc2ccc(-c3ccc(C(=O)N4CC[C@H](O)C4)cc3)cc2N=C(N)C1 7.00 to 9.00

# repeat for CCCN(C[C@@H](C)O)C(=O)C1=Cc2ccc(-c3ccc(C(=O)N4CCCC4)cc3)cc2N=C(N)C1 (single isomer, unassigned) 7.00 to 9.00

# repeat for CC(C)CN(CC(C)C)C(=O)C1=Cc2ccc(-c3ccc(C(=O)N4CCCC4)cc3)cc2N=C(N)C1 5.00 to 6.00
